- assayed-target: Cell division control protein 42 homolog (Homo sapiens) (UniProt P60953)
- Sequence (P60953 whole entry, looked up): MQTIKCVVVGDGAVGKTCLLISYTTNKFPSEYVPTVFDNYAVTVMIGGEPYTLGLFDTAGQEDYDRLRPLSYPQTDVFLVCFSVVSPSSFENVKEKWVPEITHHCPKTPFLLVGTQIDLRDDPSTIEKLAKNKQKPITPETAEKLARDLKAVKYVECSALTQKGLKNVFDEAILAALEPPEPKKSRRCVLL
- experiment-summary: inhibition of fluorescent GTP binding to wildtype Cdc42 – biochemical, multiplex bead flow cytometry, Bodipy-FL-GTP, dose response (AID 1334)
- test-settings: bead-based flow cytometry, Bodipy-FL-GTP binding to GST-Cdc42; at 100 µM (top of the series) unless noted
Measured potencies and affinities stand elsewhere.
Listed here: items and their measured fluorescence, percent of control (lower = inhibition).
Supply the numeric figure in %, leaving out any unit text.

Below, each entry is followed by its recorded fluorescence, percent of control (lower = inhibition) result.
| compound | measurement-unit | meas-value |
| --- | --- | --- |
| COc1ccc(NC(=O)CSc2ccc3nnc(-c4cccnc4)n3n2)c(OC)c1 | % | 37.4 |
| COc1cc2c3nnc(-c4ccc(F)cc4)c-3cn(Cc3cccc(F)c3)c2cc1OC | % | 38.2 |
| CCc1ccccc1NCc1sc(C(=O)O)cc1C | % | 61.1 |
| O=C(COn1nnc2ccc(Cl)cc21)NCc1ccccc1 | % | 89.6 |

Request: For the compound O=C1c2oc3ccc(Br)cc3c(=O)c2C(c2cccc(F)c2)N1CCO (configuration not stated) , report fluorescence, percent of control (lower = inhibition).
Result: 36.4

Request: For the compound O=C(c1n[nH]c(=O)c2ccccc12)N1CCN(C2c3ccccc3-c3ccccc32)CC1 , report fluorescence, percent of control (lower = inhibition).
Result: 87

Request: For the compound Cc1ccc(C2=NN(S(=O)(=O)c3ccccc3)C(c3ccccc3O)C2)cc1 (configuration not stated) , report fluorescence, percent of control (lower = inhibition).
Result: 50.2

Request: For the compound Cc1cc2nc3c(=O)[nH]c(=O)[nH]c3nc2c([N+](=O)[O-])c1N , report fluorescence, percent of control (lower = inhibition).
Result: 35

Request: For the compound O=C(CCNS(=O)(=O)c1cccc2nsnc12)N1CCN(c2ccccn2)CC1 , report fluorescence, percent of control (lower = inhibition).
Result: 52.4

Request: For the compound N=c1c(C(=O)NCc2ccco2)cc2c(=O)n3ccccc3nc2n1CCc1ccccc1 , report fluorescence, percent of control (lower = inhibition).
Result: 28.7

Request: For the compound CCOC(=O)c1c(CSc2ccccc2)n(C)c2cc(Br)c(OCC(O)CNC(CO)(CO)CO)cc12 (configuration not stated) , report fluorescence, percent of control (lower = inhibition).
Result: 94.1

Request: For the compound Cc1ccc(NC(=S)Nc2ccc3nc(-c4ccccn4)c(-c4ccccn4)nc3c2)cc1C , report fluorescence, percent of control (lower = inhibition).
Result: 53.7

----------
- experiment-summary: reduced mouse 2C T cell binding to pMHC/ICAM-1 vesicles – MLPCN validation set, flow cytometry, LFA-1/ICAM-1 modulator project, pilot screen (AID 2523);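 note: mean PE anti-B7-1 fluorescence of CD8+ cells relative to row control; 100% = QL9-loaded vesicles with DMSO vehicle in the same plate row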
- test-settings: 2C mouse CD8+ T cells, at 7 µM, stronger effect = lower value
Listed here: items and their measured vesicle binding response.
Supply the numeric figure in %, leaving out any unit text.

Below, each entry is followed by its recorded vesicle binding response result.
| molecule | measure | meas-value |
| --- | --- | --- |
| CNC(=O)Oc1ccc2c(c1)[C@]1(C)CCN(C)[C@@H]1N2C | vesicle binding response | 183 |
| CC(C)C(CCN1C(=O)CCC1=O)C1CCOC(C)(C)C1 (centres undefined) | vesicle binding response | 130 |
| CCN1/C(=C/C=C/C=C/c2sc3ccccc3[n+]2CC)Sc2ccccc21 | vesicle binding response | 109 |
| O=C1C(O)CC2c3ccccc3CC3(CCCC3)N12 (centres undefined) | vesicle binding response | 247 |
| NC(=O)c1ccccc1O | vesicle binding response | 199 |
| COc1ccc(C2OC[C@H]3O[C@H](O)[C@H](NC(C)=O)[C@@H](O)[C@@H]3O2)cc1 (some centres undefined) | vesicle binding response | 135 |

Request: For the molecule COc1cc(C2C(C(C)=O)=C(O)C(=O)N2c2ccc(C)cc2)ccc1O (centres undefined) , report vesicle binding response.
Result: 75.1

Request: For the molecule O=C(N1CCCCC1)C1(c2ccccc2)CCOCC1 , report vesicle binding response.
Result: 213

Request: For the molecule CCOc1ccc2nc(NC(=O)NC3CCCCC3)sc2c1 , report vesicle binding response.
Result: 215

Request: For the molecule CNc1c2c(nn1C)CCCC2 , report vesicle binding response.
Result: 126

Request: For the molecule Cc1ccc(C(=O)COC(=O)c2cnccn2)cc1[N+](=O)[O-] , report vesicle binding response.
Result: 226

Request: For the molecule CCOC(=O)C1=C(C)NC(C)=C(C(=O)OC)C1c1cccc([N+](=O)[O-])c1 (centres undefined) , report vesicle binding response.
Result: 200

Request: For the molecule CC(NC(=O)c1cccnc1)C(=O)O (centres undefined) , report vesicle binding response.
Result: 54.6

Request: For the molecule CC(=O)Nc1nnc(S(N)(=O)=O)s1 , report vesicle binding response.
Result: 1080

Request: For the molecule C(=C\c1ccc2ccccc2n1)/c1ccccc1 , report vesicle binding response.
Result: 306

Request: For the molecule COc1cc(C(=O)Nc2ccc(N(C)C)cc2)c([N+](=O)[O-])cc1OC , report vesicle binding response.
Result: 224
